# protocol-notes: folding stability dG unfold from chymotrypsin proteolysis; higher = more stable
Note to self: values exactly at 3 kcal/mol are 1. So folding stability dG unfold at or above 3 kcal/mol is 1, below is -1.

Below are worked cases with known answers.
primary-sequence	label
SAGGSALKIMVEPDPEDGTVRVWFMIPNPENGEEFMVQAEIDPNGKIEDVEVYPNGNMIWITFKLPSAGGSA [r15_557_TrROS]	1
SAGGSAGGSAGKVTLVFKTKEDALNAIKELAEKEGLKVKIVKIEELPNGLIKITVEIEKPSAGGSAGGSAGG [r11_304_TrROS_Hall]	1
SAGGSAGGSAGMKKTVTTSTAPDGTLTTTTTVPTPDSTTTVVTTTTDPTTGTTTTTTTANSAGGSAGGSAGG [r11_107_JUSTAS]	-1
SKGKKTVTINFMLKVEDPEDLPPGQEVKIPPEFIDFLRDQGFKITEIKIRVVPPPDGDVYVMFSSTIEVDSA [r9_465_TrROS]	1
SAGGSAGGMKYVVTVELPETGTTRTLTIPDNYTGEENVKKAVEEEAKKLGYSISKIEITKINDKSAGGSAGG [r6_718_JUSTAS]	-1
SMKIEVSGGNVTVEMYMWRRKKERDPDDPGKERDQPEPMPQTHTIDPNDPEAAKKFLDKFPPGFRPEIHDSA [r9_476_TrROS]	-1

IN: # check: folding stability dG unfold of SAGGSAGGSAGGGSPIPTTTLTTVTYGSSSSLLSSAKGPSSVPYSLPSSLGSSVSTTVVGSAGGSAGGSAGG [r7_141_JUSTAS] is greater than or equal to 3 kcal/mol
OUT: -1

###

Quick reference for folding stability dG unfold among some sequences
# protocol-notes: folding stability dG unfold from chymotrypsin proteolysis; higher = more stable
Write the answer as a number in kcal/mol, unit excluded.

primary-sequence	folding stability dG unfold (kcal/mol)
SAGGSAFPTIAESPGVVKIEPLPDGTIKITFNTSEEAKEKIIEELKKLGNFNVEEDPEKPVLIVKKSAGGSA [r15_554_JUSTAS]	2.95

The value of folding stability dG unfold measured for the sequence SAGGSAGGSKTLIIKIKVEGLSEEEIAEELAKKLQEETGLKIKSVKIEKKDGYLYIEVEVEEPSAGGSAGGS [r12_781_TrROS_Hall] turned out to be 3.96

The value of folding stability dG unfold measured for the sequence SAGGKKKTIVLEVKVENLEEILKLAKEAAKAGDKVTVKVKLPDGEVYTVTVDVKTGKIVKVEKKKLPKSAGG [r13_873_TrROS_Hall] turned out to be 3.3

The value of folding stability dG unfold measured for the sequence SAMIVVPATFDDRTFVLRIERLPDGSYLVDVEDPDVSREAVVEALRELLPEDAKIVLDPETNLVYVSFDSAG [r14_370_TrMRF] turned out to be 3.73

The value of folding stability dG unfold measured for the sequence SAGGMTLDELRALLAAGKVTIEPVAPDRWLVTVRGPDGEEFTFEFESLEELLDALRAIPGLEVEVRPVSAGG [r13_600_TrROS_Hall] turned out to be 3.9

The value of folding stability dG unfold measured for the sequence SAGGSAGGSMRVEITEVKEVRGEGGEPRYLVTVRITVPDGKEETFVYEFKTPEELEKLEVELPSAGGSAGGS [r20_130_JUSTAS] turned out to be 3.37

The value of folding stability dG unfold measured for the sequence SAGGNIKITDIEMEPMNMPRKNEDGKEKPRPMWQFKVRIRDDGKPIAEVPFTSMDDMRNAVKKLLKKSAGGS [r8_21_TrROS] turned out to be -0.0964

The value of folding stability dG unfold measured for the sequence SAGGSAGGSMLEEKIKQVPKSEKATITIKVKNENGKWKVVTVEVTYIEGKNEYEVKITITPEPGSAGGSAGG [r6_545_JUSTAS] turned out to be 3.04

The value of folding stability dG unfold measured for the sequence SAGGSAGGSAGMLIELTVETSVTTVSTPDATFTVVTLKEPGKPETLGTVVYDPATGSPALSAGGSAGGSAGG [r11_645_JUSTAS] turned out to be -0.959

The value of folding stability dG unfold measured for the sequence SAGGSAGGSAGPSDDVKPYEVEAEFLIPGTGERVRVRAEVYTLDEEKGLALVRVEVEPVLSAGGSAGGSAGG [r11_1029_TrMRF] turned out to be 2.88

The value of folding stability dG unfold measured for the sequence SAGGSAGGSAKPKVKIEVEERRVLTLDPETGELKEERVLVVRIEVEPGMSEEEAKKLLEELASAGGSAGGSA [r18_438_TrROS_Hall] turned out to be 2.66

The value of folding stability dG unfold measured for the sequence SAWKIWIEFTPGDPGDTYQIRIDPNSPNLEALLKELAQMFKYEVKDAEVEYNPNGSVWVEFKVDELKPPSAG [r14_655_TrROS] turned out to be 2.67

The value of folding stability dG unfold measured for the sequence SAGGSAMSRTITVEITDPRNGKKLKNVVIDVPEDEDISDEEILKKIGIPEKEAKNIKVSKTTEELESAGGSA [r15_665_JUSTAS] turned out to be 0.365

The value of folding stability dG unfold measured for the sequence SAGGPLTLEFTLPNGDEVGDVTVEPLPDDSYIVTVVAEDKDRPGVYYVSLVRIPPTDRTLEVVSGPVYSAGG [r13_370_TrMRF] turned out to be 1.24

###

# protocol-notes: folding stability dG unfold (combined trypsin and chymotrypsin); higher = more stable
Quick reference for folding stability dG unfold among some sequences
Write the answer as a number in kcal/mol, unit excluded.

Examples from the recorded data:
primary-sequence	folding stability dG unfold (kcal/mol)
SKKPKLKIEIEIPEITNMQPDPDNGKYTMRVPFRIKIEWKDNGKEREVDIPIPMNMTVDDARDQLKDLLKSA [r9_656_TrROS]	1.1
SAGGSANAEEIADWLQDRGFKEVEIEKDPENGNVTVEIRNPGGYEWELTINPKNPKITEIEPRPKKSAGGSA [r15_648_TrROS]	-0.523
SAGGSAEIEVTVYYDPETGEILVLINFPDETKFEVAVEEFKKLFEKVEAVKLPDGSVLVRSPLKDASAGGSA [r15_1057_TrMRF]	1.59
SAGGSAGGSAKVYVNPDNNKVAVVLPPPGDSYLVLLFDPETGEVRLIEAPPEEVEELLKKGSAGGSAGGSAG [r3_162_TrMRF]	0.845

The value of folding stability dG unfold measured for the sequence SAGGSMRLVKITVTTLEPSAEAIAAGAPTPVTLIEREVSSEEEVEEFIKSLPPNVEVSVERLPPPASAGGSA [r2_25_JUSTAS] turned out to be 2.04

The value of folding stability dG unfold measured for the sequence SAGGSAMVYLVTVTIKSEGKEVRYKEWVESDEPEKLIEKVKKEYPNEEIKVEITPFPSKEEAEKLLSAGGSA [r15_889_JUSTAS] turned out to be 2.41

The value of folding stability dG unfold measured for the sequence SAGPFILVKFVTPDGRPLYYVIEIPESEEPEKLTLEQALEVAEAIAKALASKGGFEVKEVKIVSPEEFSAGG [r19_27_TrMRF] turned out to be 3.66

###

Quick reference for folding stability dG unfold among some sequences
# protocol-notes: folding stability dG unfold from trypsin proteolysis; higher = more stable
Write the answer as a number in kcal/mol, unit excluded.

primary-sequence	reading-unit	folding stability dG unfold
SAGGGSMKTIELTVTNPATGETVTVTLELDPSVSEEEVEARIKETEEAVEKELLAPEPPLAPTPARASAGGS [r16_191_JUSTAS]	kcal/mol	-0.465

The value of folding stability dG unfold measured for the sequence SAGLKFSITKAEWENGYLTVKVMVTGPDGQSQPFTITIRIKPVPKPPPKMTEEKDPNGKKKWEYKDPDSAGG [r19_172_TrROS] turned out to be 2.26

The value of folding stability dG unfold measured for the sequence SAGGSAGGSAGGSVSVNIPLEELKERVPPSLSVSVSPTPVPEGGGVRVPVTLTSPAELGSAGGSAGGSAGGS [r4_119_JUSTAS] turned out to be 1

The value of folding stability dG unfold measured for the sequence SAGGSNVEVERHPDGHMTFTFPDEDGKDVKITIHMHPDGMYMIRVPGNNQPIYFPPGQSIEDLLKLSAGGSA [r2_338_TrROS] turned out to be 2.2

The value of folding stability dG unfold measured for the sequence SAGGSAGGSAGGGMSSVSLVKTSTITVGNGTVKLETLSYPDSSFVRTTLPNGKDVVEPLPSAGGSAGGSAGG [r7_655_JUSTAS] turned out to be -0.561

The value of folding stability dG unfold measured for the sequence SAGGSAGGSVEKLKKALEKLGIKVENVKIEVKTNKNGKKTVTIYVNGKKLSKEEIKKALKEIKSAGGSAGGS [r12_175_TrROS_Hall] turned out to be 2.99

The value of folding stability dG unfold measured for the sequence SAGDSVVIPFRLPPENLSPEELLEWIIDEVKEAAKAGLPHKVTIQVPYPGKPWYITIDPKNGEIEIVPSAGG [r19_204_TrROS] turned out to be 1.04
